Assay: amyloid nucleation score (Sup35N fusion, yeast selection) (log enrichment); library NNK1; higher = more nucleation; inactive = no reads after selection;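 also: zero at mode of non-aggregating sequences after 7 days selection at 30°C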
Rule: amyloid nucleation score of 0.2 or more gives true (1); anything lower gives false (0).

Solved cases (3 shown):
SNATVGQPRYNVRTGKAGCE = true (1)
SIASIIRRFNWDTK = true (1)
SWFWHPYFCHRRIGSMGDGV = false (0)

Please tell me: is the substance `AYCFNSTGLSRFCSKYLWSN` at or over 0.2 in terms of amyloid nucleation score?
false (0)

Can `SIFVFRLYFLYGLV` be said to have amyloid nucleation score at or above 0.2?
true (1)

Item `NNCAFYSLRWRKLWLGGMHV` with amyloid nucleation score of 0.2 or above?
true (1)

Check if amyloid nucleation score >= 0.2 (inclusive). Item: `GRECLRCTFKMVGWVATEIA`
false (0)

----------
Assay: amyloid nucleation score (Sup35N fusion, yeast selection) (log enrichment); library NNK3; higher = more nucleation; inactive = no reads after selection
QUANTITY KIND: amyloid nucleation score

The following sequences have reported results that may help.
KAWETWAITTRSWKMFIRCL = 0.046
SYVWYRNGM = inactive
WEFLCFFAT = inactive
PSRRRMYADFHKATFPVRMG = inactive
MALSRILTALVVLLLTVVVC = inactive
EDNTKLRSWGELLGVCGKLS = inactive
SNLRMRKNGVVDDIWPDERL = -0.802
NWVQKRPGQRHFNIASNCV = inactive

Next up:
Which amyloid nucleation score is listed for `RGGRTSVLLNRSMLVEK` ?
inactive

----------
Test: amyloid nucleation score (Sup35N fusion, yeast selection) (log enrichment); library NNK2; higher = more nucleation; inactive = no reads after selection
QUANTITY KIND: amyloid nucleation score

Study these solved cases before continuing.
WDLLRVM = 0.312
MVFRNNYSEVTTRLAGNGRR = -0.074
LYLTRMFTTNAL = 0.806
CMREATFRLTSKFLSSFGL = 4.04
QTDMII = inactive

GET /values?readout=amyloid nucleation score&item= `FVSGRKNETYSKVIHVSDVD`
-0.198

Reported amyloid nucleation score for `NRNPYILGYLRPPEVDYWWW` : what is it?
-0.627

Requested field: amyloid nucleation score. Item: `YKLGVKPMKAG`
-0.224

----------
Assay: amyloid nucleation score (Sup35N fusion, yeast selection) (log enrichment); library NNK3; higher = more nucleation; inactive = no reads after selection
QUANTITY KIND: amyloid nucleation score

Recorded amyloid nucleation score, per entry:
SLDCARNFRFGQTVFCCVGY = 1.21
SLLMYCRNTVSMSNNLSRHR = 1.39
SYLQQLDLSRDGTVLLKSGI = inactive
ILVAGTAV = inactive
SDYSLYWFK = inactive

Form field: reported amyloid nucleation score of `KGTMVQTVKSVWLGEHIVLA`
inactive

amyloid nucleation score lookup needed for `YWQDGQ` , thanks.
inactive

Find the recorded amyloid nucleation score belonging to `INLVNTLFTIILMRSYRRTR` and report it.
0.022

What value of amyloid nucleation score has been reported for the following substance? `QFHYYVLMIRSVIPFIALWK`
inactive

----------
Test: amyloid nucleation score (Sup35N fusion, yeast selection) (log enrichment); library NNK1; higher = more nucleation; inactive = no reads after selection
Please mark yes (1) if the recorded amyloid nucleation score is equal to or greater than 0.9, and no (0) if it falls below.

Study these solved cases before continuing.
GWHLHFC = no (0)
SVAFWSVCRVLGTDADMDRI = no (0)
CLVVPCD = no (0)
TVYYFG = yes (1)
PGVPPPKRA = no (0)

Is the recorded value of amyloid nucleation score equal to or greater than 0.9 for this substance? `RKRHSDNYRCEVNRS`
no (0)

Threshold query (amyloid nucleation score >= 0.9) on `DLFYYLRRLITRTWFM`
yes (1)

Does the substance `LGQLNFLMWYPKYECRIYMG` have recorded amyloid nucleation score that is 0.9 or more?
yes (1)

----------
Assay: amyloid nucleation score (Sup35N fusion, yeast selection) (log enrichment); library NNK3; higher = more nucleation; inactive = no reads after selection
QUANTITY KIND: amyloid nucleation score

FWCIGEIRCTYMWRSQCFCV = inactive
MYVPIPVYFQF = inactive
AILCTIVCNASWAEEQSA = 1.09
TFLELSIMYGRVTCNSLY = -0.259
YPLNLYYQAFYSLIGLVIPP = inactive

What measured amyloid nucleation score goes with `LFDFADSMVRQVRTDAKRLN` ?
inactive

May I ask what amyloid nucleation score has been recorded for `CGSWAYRY` ?
0.435

Tell me the measured amyloid nucleation score of `LKVVSKVLYNSSYPVRYVLR` , please.
inactive

Name the reported amyloid nucleation score value associated with the substance `MLGVSYCRQVVYKENSYDFR`
inactive

Name the recorded amyloid nucleation score for `FWMILMDMLFMRLGSL` .
inactive

----------
Test: amyloid nucleation score (Sup35N fusion, yeast selection) (log enrichment); library NNK3; higher = more nucleation; inactive = no reads after selection
QUANTITY KIND: amyloid nucleation score

// worked examples, amyloid nucleation score included
YYWRMYCS = inactive
DINAVT = inactive
FRYVVHTESYTIESVEVIR = 1.22
LWLMVFWKINGNMLGCHPEM = inactive
KRMSKKALRLVVSYFSPS = inactive
SSIAMHCILIVFLKGLCVFR = inactive

Need amyloid nucleation score, item `VYDWRGRVGD`
inactive

Which amyloid nucleation score is listed for `NFAGMFVGLMPWHVCDTTCR` ?
inactive

Which value of amyloid nucleation score has been reported for `TVNLDQMYYMVFCVFRSMHD` in the records?
0.498

----------
Assay: amyloid nucleation score (Sup35N fusion, yeast selection) (log enrichment); library NNK2; higher = more nucleation; inactive = no reads after selection
Rule: amyloid nucleation score of -0.2 or more gives Met; anything lower gives Not met.

# example entries with known answers
KMHCGFDFEWVTTYNTTIVR = Not met
PWSSHCSCVFNNKDLILGNT = Not met
DQFWSENRIDYDNLAIRLQL = Not met
DDNVLYCYSYVVHESLSAAQ = Met
RVQVQLLISVYFFLYLPHSI = Not met
DRWEPKLI = Not met

Is amyloid nucleation score at least -0.2? Consider `FRGSAFS`
Met

----------
Experiment: amyloid nucleation score (Sup35N fusion, yeast selection) (log enrichment); library NNK1; higher = more nucleation; inactive = no reads after selection
Short version: amyloid nucleation score at least 0.2 is yes, less is no.

Consider the worked cases shown below.
IPNISGYPHICMESGGSLVC = no
FGLKYRSDGVPCPDYLARKY = yes
WIVCCMWVYVLSLQL = no

Item `RCWRSLPRLLRQFMDSSRTI` with amyloid nucleation score of 0.2 or above?
no

----------
The following sequences are listed with their measured amyloid nucleation score values.
Assay: amyloid nucleation score (Sup35N fusion, yeast selection) (log enrichment); library NNK1; higher = more nucleation; inactive = no reads after selection
Answer with a bare number; do not write a unit.

Return reported amyloid nucleation score; argument: `ITVSYDKGFSFNLWGIHFKV`
0.071

Give its amyloid nucleation score value. Item: `AWSLTSTHFG`
0.249

Look at this sequence and give its reported amyloid nucleation score. `CSLRYVLHYRYVGLETATNT`
0.763

Any idea what its amyloid nucleation score is? The sequence is `SYPFWYSHMIHCYRFAIFGL`
-2.73

----------
Assay: amyloid nucleation score (Sup35N fusion, yeast selection) (log enrichment); library NNK2; higher = more nucleation; inactive = no reads after selection
Catalogue of amyloid nucleation score readings, one per entry.
# respond with the number and nothing more

// worked examples, amyloid nucleation score included
IVGHRVLACVRPRRVVTRYG = 0.118
VISQRLFS = -0.155
YEPSATEPRLRRFHGEARLL = 0.32
SLSYDWFASHLWTYDGW = -1.03
CSYVAGETSLERSHCILGWS = 0.161
LIICSAPCCVTTWQQLRTMQ = 4.15
MSYGNAYNTPKCDKHSVIPY = 0.738
LFGLNFNLSNNLFMFFSYTQ = 3.46

Recorded amyloid nucleation score for `WLYLFKGWSNLDSESFTMTS` , please?
-0.943

Please report the recorded amyloid nucleation score for `GSDQNSCELSRRDIKKCMAL` .
0.504

----------
Reported amyloid nucleation score values are given for each entry in this list.
Assay: amyloid nucleation score (Sup35N fusion, yeast selection) (log enrichment); library NNK1; higher = more nucleation; inactive = no reads after selection
Hey, just send me the number, nothing else.

STTLQERVYSAPATDLRDWA = 0.246

Please report the recorded amyloid nucleation score for `VSRNFVTKDSQLNGLSN` .
-1.52

Fill in: amyloid nucleation score of `FNLSLLRSSCAVH` is ___
1.04

----------
Assay: amyloid nucleation score (Sup35N fusion, yeast selection) (log enrichment); library NNK2; higher = more nucleation; inactive = no reads after selection
QUANTITY KIND: amyloid nucleation score

In the examples that follow, each entry is paired with its recorded amyloid nucleation score.
KIFSSF = -1.01
DYLCGNFKCYCVFTNDGNRF = 2.42
VDRDSPKYVHA = 0.917
NFFRAENVYCSMLFSKGWDW = 6.97
WCWLEYCCTIDSLIFLFEN = 4.09
ISNGYPVDRHSWVNILSLT = 1.23

Please examine the following record next.
Field request: amyloid nucleation score | item: `FDGLIFSITRTLVY`
-1.42

FYI, the data here is from the supplement of paper PMC12042874.
